The measured values listed here are drawn from patent US20090280138A1.

target-desc: T1, MHC class I allele B*0702 (bound via biotin to streptavidin-coated plate)
T1 construct: iTopia MHC class I monomer on the plate; placeholder peptide and b2M removed, then reconstituted with test peptide and fresh b2M; also called B7; HLA B7
run-description: iTopia peptide binding assay
Given measured % of positive control peptide binding, output y if it is greater than or equal to 9% and n if not.

| binder | class-name |
| --- | --- |
| AALLAGRAL [5T4 9 mer peptide 101 AALLAGRAL] | y |
| RLRLARLAL (also called Peptide No 8) [5T4 9 mer peptide 8 RLRLARLAL] | y |
| AALNLSGSR (also called Peptide No 61) [5T4 9 mer peptide 61 AALNLSGSR] | n |
| LPSLRQLDL (also called Peptide No 71) [5T4 9 mer peptide 71 LPSLRQLDL] | y |
| SGSNASVSA (also called Peptide No 82) [5T4 9 mer peptide 82 SGSNASVSA] | y |
| PAGAFARRP (also called Peptide No 54) [5T4 9 mer peptide 54 PAGAFARRP] | n |
| LAELAALNL (also called Peptide No 59) [5T4 9 mer peptide 59 LAELAALNL] | y |
| PALCECSEA (also called Peptide No 32) [5T4 9 mer peptide 32 PALCECSEA] | n |
| CSRGPAAGD (also called Peptide No 3) [5T4 9 mer peptide 3 CSRGPAAGD] | n |
| VKCVNRNLT (also called Peptide No 38) [5T4 9 mer peptide 38 VKCVNRNLT] | n |
| RRLELASNH [5T4 9 mer peptide 107 RRLELASNH] | n |
| PDQCPALCE (also called Peptide No 30) [5T4 9 mer peptide 30 PDQCPALCE] | n |
| PLADLSPFA (also called Peptide No 77) [5T4 9 mer peptide 77 PLADLSPFA] | y |
| RDVLAQLPS [5T4 9 mer peptide 114 RDVLAQLPS] | n |
| ECSEAARTV (also called Peptide No 34) [5T4 9 mer peptide 34 ECSEAARTV] | n |
| VPTDLPAYV (also called Peptide No 43) [5T4 9 mer peptide 43 VPTDLPAYV] | y |
| SSSPTSSAS (also called Peptide No 16) [5T4 9 mer peptide 16 SSSPTSSAS] | n |
| ILNHIVPPE (also called Peptide No 90) [5T4 9 mer peptide 90 ILNHIVPPE] | n |
| VSSSSPTSS (also called Peptide No 15) [5T4 9 mer peptide 15 VSSSSPTSS] | n |
| PPEDERQNR (also called Peptide No 93) [5T4 9 mer peptide 93 PPEDERQNR] | n |
| ASAVSAQPP (also called Peptide No 25) [5T4 9 mer peptide 25 ASAVSAQPP] | n |
| APFLASAVS (also called Peptide No 23) [5T4 9 mer peptide 23 APFLASAVS] | y |
| VVAALLAGR (also called Peptide No 100) [5T4 9 mer peptide 100 VVAALLAGR] | n |
| PPLAELAAL (also called Peptide No 58) [5T4 9 mer peptide 58 PPLAELAAL] | y |
| AFSGSNASV (also called Peptide No 81) [5T4 9 mer peptide 81 AFSGSNASV] | y |
| NRNLTEVPT (also called Peptide No 40) [5T4 9 mer peptide 40 NRNLTEVPT] | n |
| SAQPPLPDQ (also called Peptide No 27) [5T4 9 mer peptide 27 SAQPPLPDQ] | n |
| VRNLFLTGN (also called Peptide No 47) [5T4 9 mer peptide 47 VRNLFLTGN] | n |
| IVPPEDERQ (also called Peptide No 92) [5T4 9 mer peptide 92 IVPPEDERQ] | n |
| SPTSSASSF (also called Peptide No 17) [5T4 9 mer peptide 17 SPTSSASSF] | y |
| LCECSEAAR (also called Peptide No 33) [5T4 9 mer peptide 33 LCECSEAAR] | n |
